# system-name: Urotensin-2 receptor (Rattus norvegicus) (UniProt P49684)
# Sequence (whole entry): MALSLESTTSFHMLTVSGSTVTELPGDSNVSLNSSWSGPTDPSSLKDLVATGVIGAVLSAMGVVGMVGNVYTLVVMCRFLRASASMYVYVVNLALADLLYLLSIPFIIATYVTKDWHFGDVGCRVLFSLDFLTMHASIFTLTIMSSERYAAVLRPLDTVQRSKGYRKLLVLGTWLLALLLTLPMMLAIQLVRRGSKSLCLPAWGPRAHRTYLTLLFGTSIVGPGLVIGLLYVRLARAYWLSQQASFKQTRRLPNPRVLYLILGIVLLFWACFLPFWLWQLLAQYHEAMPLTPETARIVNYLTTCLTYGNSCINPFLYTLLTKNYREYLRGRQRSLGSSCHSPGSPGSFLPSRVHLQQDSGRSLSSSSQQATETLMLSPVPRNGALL
# protocol: Allosteric modulation of urotensin-2 receptor in Sprague-Dawley rat thoracic aorta assessed as change in URP-mediated aortic ring contraction by measuring URP Emax at 10^-5M preincubated for 15 mins followed by URP addition relative to KCl (reference value: 118 +/- 2%)
measured-property: Emax (%)

Illustrative cases are given below, each with its answer.
>>> reported_measurement("COc1ccc(CCC2=NN(CCCCN)C(=O)N(Cc3ccc4ccccc4c3)c3ccccc32)cc1")
72
>>> reported_measurement("COc1ccc(/C=C/C2=NN(CCCN)C(=O)N(Cc3ccc4ccccc4c3)c3ccccc32)cc1")
120
>>> reported_measurement("NCCCCN1N=C(/C=C/c2ccc(O)cc2)c2ccccc2N(Cc2ccc3ccccc3c2)C1=O")
114
>>> reported_measurement("NCCCN1N=C(CCc2nc3ccccc3s2)c2ccccc2N(Cc2cccc3ccccc23)C1=O")
101
>>> reported_measurement("NCCCCN1N=C(CCc2nc3ccccc3s2)c2ccccc2N(Cc2ccc3ccccc3c2)C1=O")
111

[1] NCCCN1N=C(CCc2nc3ccccc3s2)c2ccccc2N(Cc2ccc3ccccc3c2)C1=O
[2] COc1ccc(CCC2=NN(CCCN)C(=O)N(Cc3ccc(-c4ccccc4)cc3)c3ccccc32)cc1
[3] COc1ccc(/C=C/C2=NN(CCCCN)C(=O)N(Cc3ccc(-c4ccccc4)cc3)c3ccccc32)cc1
[4] COc1ccc(/C=C/C2=NN(CCCN)C(=O)N(Cc3ccc(-c4ccccc4)cc3)c3ccccc32)cc1
[5] NCCCCN1N=C(CCc2ccc(O)cc2)c2ccccc2N(Cc2ccc3ccccc3c2)C1=O
List by increasing Emax. In your reply, arrange the labels in the requested order.
2, 5, 1, 4, 3
(2: 47%, 5: 75%, 1: 117%, 4: 194%, 3: 284%)

* * *

# system-name: Urotensin-2 receptor (Rattus norvegicus)
# Sequence (whole entry): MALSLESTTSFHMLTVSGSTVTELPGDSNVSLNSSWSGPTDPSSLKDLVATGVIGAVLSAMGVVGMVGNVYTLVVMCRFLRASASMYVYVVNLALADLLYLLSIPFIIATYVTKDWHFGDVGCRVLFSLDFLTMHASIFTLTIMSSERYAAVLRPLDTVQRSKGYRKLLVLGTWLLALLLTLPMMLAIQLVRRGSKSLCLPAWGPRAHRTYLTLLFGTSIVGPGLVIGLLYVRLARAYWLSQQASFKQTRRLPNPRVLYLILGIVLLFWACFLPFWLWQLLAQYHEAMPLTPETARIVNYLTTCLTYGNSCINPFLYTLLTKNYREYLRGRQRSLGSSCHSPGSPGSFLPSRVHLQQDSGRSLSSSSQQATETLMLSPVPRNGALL
# protocol: Allosteric modulation of urotensin-2 receptor in Sprague-Dawley rat thoracic aorta assessed as change in human urotensin-2-mediated aortic ring contraction by measuring urotensin-2 Emax at 10^-5M preincubated for 15 mins followed by urotensin-2 addition relative to KCl (reference value: 103 +/- 2%)
measured-property: Emax (%)

>>> reported_measurement("NCCCCN1N=C(CCc2nc3ccccc3s2)c2ccccc2N(Cc2ccc3ccccc3c2)C1=O")
73
>>> reported_measurement("CNCCCN1N=C(CCc2nc3ccccc3s2)c2ccccc2N(Cc2ccc(-c3ccccc3)cc2)C1=O")
76
>>> reported_measurement("COc1ccc(/C=C/C2=NN(CCCCN)C(=O)N(Cc3ccc4ccccc4c3)c3ccccc32)cc1")
108
>>> reported_measurement("COc1ccc(CCC2=NN(CCCCN)C(=O)N(Cc3ccc(-c4ccccc4)cc3)c3ccccc32)cc1")
82
>>> reported_measurement("CNCCCCN1N=C(CCc2nc3ccccc3s2)c2ccccc2N(Cc2cccc3ccccc23)C1=O")
99
>>> reported_measurement("COc1ccc(/C=C/C2=NN(CCCN)C(=O)N(Cc3ccc(-c4ccccc4)cc3)c3ccccc32)cc1")
106
>>> reported_measurement("NCCCN1N=C(CCc2ccc(O)cc2)c2ccccc2N(Cc2ccc3ccccc3c2)C1=O")
107
>>> reported_measurement("COc1ccc(/C=C/C2=NN(CCCN)C(=O)N(Cc3ccc4ccccc4c3)c3ccccc32)cc1")
76
